test: Determination of toxicity
Parameters: species or system Female Wistar rats
details: rat, in vivo; dose lethal in 50% of tested animals; route not stated
Description: Female Wistar rats were treated with the compound to be tested at various dose levels. LD50 values were determined as that dose in mg/kg body weight being lethal in 50% of the tested animals. Said LD50 values obtained for a compound of the present invention and for 4-(4-chlorophenyl)-4-hydroxy-N,N-dimethyl-α,α-diphenyl-1-piperidinebutanamide (i.e. loperamide) are also listed in table I. From these value it can be concluded that the compounds of the present invention show a decreased toxicity.
Measured LD50 values are reported for all entries that follow.
outcomeMeasure: LD50 (mg/kg)

1) CN(C)C(=O)C(CCN1CCC(O)(c2ccc(Cl)cc2)CC1)(c1ccccc1)c1ccccc1 [loperamide] | 5.92
2) CN(C)C(=O)C(CC[N+]1([O-])CCC(O)(c2ccc(Cl)cc2)CC1)(c1ccccc1)c1ccccc1 (centres unmarked) | 28.3

====

Measured selectivity ratio values are reported for all entries that follow.
test: Determination of the safety margin for the antidiarrheal action (LD50 / Castor Oil ED50)
Parameters: species or system Female Wistar rats
details: rat, in vivo; ratio LD50 / ED50 Castor Oil Test
outcomeMeasure: selectivity ratio

1) CN(C)C(=O)C(CC[N+]1([O-])CCC(O)(c2ccc(Cl)cc2)CC1)(c1ccccc1)c1ccccc1 (centres unmarked) | 135
2) CN(C)C(=O)C(CCN1CCC(O)(c2ccc(Cl)cc2)CC1)(c1ccccc1)c1ccccc1 [loperamide] | 62.3
